Quick reference: melting point of the listed items.
quantityKind: melting point

- molecule: "Cn1cc(-c2nc3c(N[C@H]4[C@@H](C(N)=O)[C@@H]5C=C[C@H]4C5)ccnc3[nH]2)cn1"
  measuredValue: "236 to 238 °C"
- molecule: "CSc1nccc(-c2c3cccnc3n3c(N)nccc23)n1"
  measuredValue: "223 to 224 °C"
- molecule: "CCCCCC(=O)c1c[nH]c2c(OC)cccc2c1=O"
  measuredValue: "169 to 171 °C"
- molecule: "O=C(O)CCCCCCCCCC=Cc1ccccc1"
  measuredValue: "27 to 27.5 °C"
- molecule: "Cc1ncn(Nc2ccc(F)cc2)c1-c1ccccc1"
  measuredValue: "155 °C"
- molecule: "COc1cccc2c(=O)n(C(C)(C)C(=O)O)c(=O)[nH]c12"
  measuredValue: "255 to 258 °C"
- molecule: "COc1cc2nc(N3CCN(c4ccnc(Cl)n4)CC3)cc(N)c2cc1OC"
  measuredValue: "266 °C"
- molecule: "O=C(NC1CCN(CCc2ccccc2)CC1)c1ccccc1"
  measuredValue: "164 to 167 °C"
- molecule: "CC(=O)OC1=CCC2C3CC=C4CC(OC(C)=O)CCC4(C)C3CCC12C (stereo not given)"
  measuredValue: "144 to 150 °C"
- molecule: "CC1(C)CNC(=O)c2c1ccc1nc(Nc3c(Cl)cccc3Cl)[nH]c21"
  measuredValue: "287 to 290 °C"

Values compiled from a melting point compilation (Tetko et al.; mined from patent text by program, amines drawn as free bases though some values may be those of a salt).
